- System: C2C12 Cells
- test description: GFP plasmid transfection with DOTMA/DOPE plus surface ligand peptide, fluorescent plate reader (Example 1)
- Type: cell-based, mouse
- test conditions: DOTMA/DOPE + peptide linked to R12 or K16; EF1Alpha eGFP plasmid; 42 hours
measurement kind: Relative Fluorescence of Transfection of C2C12 Cells (RF)
When you answer, write just the number.

Below: 5 substances and their reported Relative Fluorescence of Transfection of C2C12 Cells (RF).
>>> reported_measurement("351 (LNRQELFPFG) [compound 351]")
3530
>>> reported_measurement("328 (NWRHISYITRFG) [compound 328]")
5507
>>> reported_measurement("375 (LAGSCLPVFSTL) [compound 375]")
5633
>>> reported_measurement("365 (ISRCQVCMKKRH) [compound 365]")
5390
>>> reported_measurement("352 (RIQNLLKITNLRIKFVK) [compound 352]")
3324

Need Relative Fluorescence of Transfection of C2C12 Cells (RF), item 230 (WQPPRARI) [compound 230]
2606

Request the reported Relative Fluorescence of Transfection of C2C12 Cells (RF) associated with 360 (GDLGRPGRKGRPGPP) [compound 360]
2090

Field request: Relative Fluorescence of Transfection of C2C12 Cells (RF) | item: 224 (KPDVRSYTITG) [compound 224]
1469

Entry 234 (YEKPGSPPREVVPRPRPGV) [compound 234] : reported Relative Fluorescence of Transfection of C2C12 Cells (RF) = ?
681

I am curious: what Relative Fluorescence of Transfection of C2C12 Cells (RF) value has been reported for 229 (PPFLMLLKGSTR) [compound 229] ?
1164

Item under review: 357 (SETTVKYIFRLHE) [compound 357] . Reported Relative Fluorescence of Transfection of C2C12 Cells (RF)?
4506

GET /values?readout=Relative Fluorescence of Transfection of C2C12 Cells (RF)&item= 219 (RKRLQVQLSIRT) [compound 219]
1346

###

- Test system: HeLa Cells
- test description: GFP plasmid transfection with DOTMA/DOPE plus plant virus movement protein derived peptides (Example 2)
- Format: cell-based
- test conditions: 1-6 μL of transfection reagents; 5 µL transfection reagent
Please use t for Relative Fluorescence of Transfection of Hela Cells under 10000 and f for everything else, ties included.

Worked examples follow.
>>> class("545 (KSVPNRTRTYIKLKRLRFKGAPYKAWRRRRRRRRRRRR) [compound 545]")
"f"
>>> class("544 (GVKRSYGAARGDDRRRPNVVAPYKAWRRRRRRRRRRRR) [compound 544]")
"f"
>>> class("109 (RRRRRRRRRRRR) [compound 109]")
"t"
>>> class("543 (RRRRRRRRRRRRVDFSHVDYGKWERKPIRCASMSRLGLRG) [compound 543]")
"f"

Lab note: confirm whether the reported Relative Fluorescence of Transfection of Hela Cells for this substance is below 10000, equality not counting. substance: 541 (RRRRRRRRRRRRGKWERKPIRCAS) [compound 541]
f

Hello, is Relative Fluorescence of Transfection of Hela Cells of the following substance strictly smaller than 10000? 540 (RRRRRRRRRRRRVDYGKWERKPIRCASMSR) [compound 540]
f

Criterion: Relative Fluorescence of Transfection of Hela Cells strictly below 10000. Is it met by 547 (SYVKTVPNRTRTYIKGGGGGRRRRRRRRRRRR) [compound 547] ?
t

Take the substance 546 (RTGVKRSYGAARGDDRRRPNVVRRRRRRRRRRRR) [compound 546] and say whether its Relative Fluorescence of Transfection of Hela Cells is less than 10000.
t

Say whether its Relative Fluorescence of Transfection of Hela Cells is strictly beneath 10000. Entry: 542 (KKKKKKKKKKKKKKKKGKWERKPIRCAS) [compound 542]
f

###

- Test system: HuVec Cells
- test description: GFP plasmid transfection with DOTMA/DOPE plus surface ligand peptide, fluorescent plate reader (Example 1)
- Format: cell-based
- test conditions: DOTMA/DOPE + peptide linked to R12 or K16; EF1Alpha eGFP plasmid; 42 hours
Relative Fluorescence of Transfection of HuVec Cells (RF) vs 10000: at or above is criterion met, below is criterion not met.

# example entries with known answers
>>> class("216 (YRVRVTPKEKTGPMKE) [compound 216]")
"criterion met"
>>> class("377 (TAGSCLRRFSTM) [compound 377]")
"criterion not met"

Tell me whether Relative Fluorescence of Transfection of HuVec Cells (RF) is at least 10000 here: 230 (WQPPRARI) [compound 230]
criterion not met

Evaluate 237 (KNSFMALYLSKG) [compound 237] : Relative Fluorescence of Transfection of HuVec Cells (RF) at minimum 10000?
criterion not met

Could you verify whether the entry 326 (RLVSYSGVLFFLK) [compound 326] shows Relative Fluorescence of Transfection of HuVec Cells (RF) of no less than 10000?
criterion not met

Check if Relative Fluorescence of Transfection of HuVec Cells (RF) >= 10000 (inclusive). Item: 371 (GPAGKDGEAGAQG) [compound 371]
criterion met

Check the entry 363 (LAGSCLARFSTM) [compound 363] : does Relative Fluorescence of Transfection of HuVec Cells (RF) equal or exceed 10000?
criterion not met

Could you please find out whether 365 (ISRCQVCMKKRH) [compound 365] has Relative Fluorescence of Transfection of HuVec Cells (RF) that meets 10000 or exceeds it?
criterion met

Check if Relative Fluorescence of Transfection of HuVec Cells (RF) >= 10000 (inclusive). Item: 341 (LRAHAVDVNG) [compound 341]
criterion met

Reported Relative Fluorescence of Transfection of HuVec Cells (RF) reaches at least 10000 for 350 (SIGFRGDGQTC) [compound 350] ?
criterion met

Is reported Relative Fluorescence of Transfection of HuVec Cells (RF) greater than or equal to 10000 here: 218 (SPPRRARVT) [compound 218]
criterion met

###

- Tested on: HuVec Cells
- test description: GFP plasmid transfection with DOTMA/DOPE plus surface ligand peptide, fluorescent plate reader (Example 1)
- Assay type: cell-based
- test conditions: DOTMA/DOPE + peptide linked to R12 or K16; EF1Alpha eGFP plasmid; 42 hours
Reported Relative Fluorescence of Transfection of HuVec Cells (RF) by item:
Reply: number alone, nothing else.

See these solved cases before continuing.
>>> reported_measurement("332 (TWYKIAFQRNRK) [compound 332]")
4221
>>> reported_measurement("256 (RQVFQVAYIIIKA) [compound 256]")
3030
>>> reported_measurement("347 (DLGTAGSCLRKFSTM) [compound 347]")
20728
>>> reported_measurement("342 (TAGSCLRKFSTM) [compound 342]")
12804
>>> reported_measurement("236 (KNNQKSEPLIGRKKT) [compound 236]")
14418

Any idea what Relative Fluorescence of Transfection of HuVec Cells (RF) came out for 327 (VAEIDGIEL) [compound 327] on HuVec Cells?
21018

Lab request: please report Relative Fluorescence of Transfection of HuVec Cells (RF) under test system HuVec Cells for 335 (TVFSVDQDNMLE) [compound 335]
6350

Record 381 (TAGSCL) [compound 381] : what is its Relative Fluorescence of Transfection of HuVec Cells (RF) with HuVec Cells?
17542

Item: 503 (TAGSCLRKFSTMRRRRRRRRRRRR) [compound 503] Test system: HuVec Cells Read-out: Relative Fluorescence of Transfection of HuVec Cells (RF) Value: ?
12123

Record lookup: for HuVec Cells, what Relative Fluorescence of Transfection of HuVec Cells (RF) belongs to 360 (GDLGRPGRKGRPGPP) [compound 360] ?
24042

###

- Tested on: C2C12 Cells
- test description: GFP plasmid transfection with DOTMA/DOPE plus surface ligand peptide, fluorescent plate reader (Example 1)
- Assay type: cell-based, mouse
- test conditions: DOTMA/DOPE + peptide linked to R12 or K16; EF1Alpha eGFP plasmid; 42 hours
Below, each entry is listed with its recorded Relative Fluorescence of Transfection of C2C12 Cells (RF).
Keep the answer to the number alone.

Previously resolved entries follow.
>>> reported_measurement("377 (TAGSCLRRFSTM) [compound 377]")
1710
>>> reported_measurement("216 (YRVRVTPKEKTGPMKE) [compound 216]")
1001
>>> reported_measurement("502 (RNIAEIIKDI) [compound 502]")
2589

Form: Entry = 358 (GHRGPTGRPGKRGKQGQKGDS) [compound 358] | System = C2C12 Cells | Relative Fluorescence of Transfection of C2C12 Cells (RF) = ____
2271

Request - read-out Relative Fluorescence of Transfection of C2C12 Cells (RF) | tested on C2C12 Cells | substance 336 (GEFYFDLRLKGDK) [compound 336]
9647
